TARGET_UNDER_TEST: human μ opiate receptor (Homo sapiens)
Construct: purchased PerkinElmer Life Sciences, Zaventem, Belgium RB-HOM; host or cells: CHO-K1 cells (membrane preparation)
Sequence (P35372 whole entry): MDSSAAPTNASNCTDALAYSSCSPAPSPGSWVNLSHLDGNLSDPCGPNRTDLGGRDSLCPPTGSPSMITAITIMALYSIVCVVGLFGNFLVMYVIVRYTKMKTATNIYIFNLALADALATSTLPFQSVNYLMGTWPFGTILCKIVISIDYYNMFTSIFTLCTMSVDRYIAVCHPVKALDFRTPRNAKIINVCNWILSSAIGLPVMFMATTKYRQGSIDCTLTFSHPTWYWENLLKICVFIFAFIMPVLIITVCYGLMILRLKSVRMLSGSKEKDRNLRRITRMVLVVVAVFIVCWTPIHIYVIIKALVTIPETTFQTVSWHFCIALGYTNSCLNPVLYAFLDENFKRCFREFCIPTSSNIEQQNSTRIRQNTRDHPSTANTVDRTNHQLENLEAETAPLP
MEASUREMENT_NOTES: Affinity for the human μ opiate receptor ([3H]-naloxone displacement, CHO-K1 receptor membrane preparation, SPA)
Format: binding
CONDITIONS: test concentration of 1 μM; read-out: μ (binding on the μ opioid receptor, % inhibition)
PROPERTY_NAME: inhibition at 1 µM (%)
Give your result in % as a bare value.

Exercise: So what inhibition at 1 µM did Cc1cc(C)c(S(=O)(=O)N(C)CCOCC(=O)NCC2CCC(C(c3cccs3)N(C)C)CC2)c(C)c1 (stereo not drawn) [Example 57] get with human μ opiate receptor (Homo sapiens)?
Solution: 95

Exercise: Now try COc1ccc(S(=O)(=O)N2CCCCC2COCC(=O)NCC2CCC(C(c3ccccc3)N(C)C)CC2)cc1OC (stereo not drawn) [Example 150] .
Solution: 86

Exercise: Cool, now CN(C)C(c1ccccc1)C1CCC(CNC(=O)COC2CCN(S(=O)(=O)c3ccc(Cl)cc3)C2)CC1 (stereo not drawn) [Example 81]
Solution: 91

Exercise: Query COc1cc(C)c(S(=O)(=O)N(C)CCOCC(=O)NCCC2CCC(C(c3cccc(F)c3)N(C)C)CC2)c(C)c1 (stereo not drawn) [Example 197] next
Solution: 85

Exercise: Thanks! And CCN(CCOCC(=O)NC1CCC(C(c2cccs2)N(C)C)CC1)S(=O)(=O)c1c(C)cc(OC)c(C)c1C (stereo not drawn) [Example 59] ?
Solution: 95

Exercise: Thanks! And Cc1cc(C)c(S(=O)(=O)N2CCC(OCC(=O)NCCC3CCC(C(c4cccs4)N(C)C)CC3)C2)c(C)c1 (stereo not drawn) [Example 71] ?
Solution: 94

Exercise: Also check CN(C)C(c1cccc(F)c1)C1CCC(CNC(=O)COCC2CCCN2S(=O)(=O)c2ccc(Cl)c(Cl)c2)CC1 (stereo not drawn) [Example 119]
Solution: 90

Exercise: Try the compound CN(C)C(c1cccc(F)c1)C1CCC(NC(=O)COC2CCCCC2N(C)S(=O)(=O)c2ccc(Cl)c(Cl)c2)CC1 (stereo not drawn) [Example 132]
Solution: 91

Exercise: One more compound: CN(C)C(c1cccs1)C1CCC(CNC(=O)COC2CCN(S(=O)(=O)c3ccccc3)C2)CC1 (stereo not drawn) [Example 36]
Solution: 96

Exercise: Now try CN(C)C(c1cccs1)C1CCC(CNC(=O)COCCN(C)S(=O)(=O)c2ccc(Cl)cc2Cl)CC1 (stereo not drawn) [Example 8] .
Solution: 98

Exercise: Try the compound COc1cc(C)c(S(=O)(=O)N2CCC(OCC(=O)NCC3CCC(C(c4cccs4)N(C)C)CC3)C2)c(C)c1 (stereo not drawn) [Example 86]
Solution: 95

Exercise: Continue with COc1ccc(S(=O)(=O)N2Cc3ccccc3CC2COCC(=O)NCCC2CCC(C(c3cccs3)N(C)C)CC2)cc1 (stereo not drawn) [Example 48]
Solution: 96

Exercise: Would you kindly repeat that for CN(C)C(c1cccs1)C1CCC(NC(=O)COC2CCN(S(=O)(=O)c3ccc(F)cc3)C2)CC1 (stereo not drawn) [Example 28] ?
Solution: 97

Exercise: Continue with CN(C)C(c1cccc(F)c1)C1CCC(CCNC(=O)COCCN(C)S(=O)(=O)c2c(Cl)cc(Cl)cc2Cl)CC1 (stereo not drawn) [Example 174]
Solution: 90

Exercise: Now try COc1ccc(S(=O)(=O)N2CCC(OCC(=O)NCC3CCC(C(c4ccccc4)N(C)C)CC3)C2)cc1OC (stereo not drawn) [Example 22] .
Solution: 97

Exercise: Follow-up entry: Cc1cc(C)c(S(=O)(=O)N2CCC(OCC(=O)NC3CCC(C(c4cccs4)N(C)C)CC3)C2)c(C)c1 (stereo not drawn) [Example 12]
Solution: 98

Exercise: Let us now turn to CC(Oc1ccccc1)C(=O)NCC1CCC(C(c2cccc(F)c2)N(C)C)CC1 (stereo not drawn) [Example 108]
Solution: 91

Exercise: Follow-up item: COc1ccc(S(=O)(=O)N2CCCC2COCC(=O)NC2CCC(C(c3ccccc3)N(C)C)CC2)cc1 (stereo not drawn) [Example 182]
Solution: 82

Exercise: COc1ccc(S(=O)(=O)N2CCCCC2COCC(=O)NCCC2CCC(C(c3cccc(F)c3)N(C)C)CC2)cc1 (stereo not drawn) [Example 180] , same question.
Solution: 90

Exercise: Also check COc1ccc(S(=O)(=O)N2Cc3ccccc3CC2COCC(=O)NCC2CCC(C(c3cccc(F)c3)N(C)C)CC2)cc1 (stereo not drawn) [Example 163]
Solution: 87

Exercise: Then CN(C)C(c1cccs1)C1CCC(CCNC(=O)COC2CCCN(S(=O)(=O)c3ccccc3)C2)CC1 (stereo not drawn) [Example 100] ?
Solution: 94

The reported measurements were obtained from patent US8106055B2.
